# Test system: Erwinia amylovora
# PROTOCOL SUMMARY: Antibacterial activity against Erwinia amylovora by disk diffusion assay
# Assay type: functional
ASSAY ENDPOINT: MIC

STRUCTURE SMILES	OBSERVED VALUE
NC(=O)NC[C@@H](NC(=O)[C@@H](O)[C@H](O)[C@H](N)CO)C(N)=O	> 128 µg/mL
NC(=O)NC[C@@H](NC(=O)[C@@H](O)[C@H](O)[C@H](N)[C@H](O)C[C@@H](O)[C@@H](N)CO)C(N)=O	> 128 µg/mL
NC(=O)NC[C@H](NC(=O)[C@H](O)[C@@H](O)[C@@H](N)[C@@H](O)C[C@H](O)[C@H](N)CO)C(N)=O	18.8 µg/mL
NC(=O)NC[C@H](NC(=O)[C@@H](O)[C@H](O)[C@H](N)[C@H](O)C[C@@H](O)[C@@H](N)CO)C(N)=O	> 128 µg/mL
